# experiment: Probe fluorescence ratio response to stearic acid relative to ADIFAB2
# Type: binding
# conditionSet: response relative to ADIFAB2
quantityKind: DR/DR SA
Number, no unit, nothing else.

Solved cases (2 shown):
molecule	DR/DR SA
21F 78V 102V 72A (protein, listed as Rattus norvegicus, PEPTIDE (1)...(131) wild-type rat intestinal fatty acid binding protein) AFDGTWKVDRNENYEKFMEKFGINVVKRKLGAHDNLKLTITQEGNKFTVKESSNFRNIDVVFELGVDFAYSAADGTEVTGTWTMEGNKLVGKFKRVDNGKEVIAVREISGNELIQTYTYEGVEAKRIFKKE	3.120
72W 73T 74G (protein, listed as Rattus norvegicus, PEPTIDE (1)...(131) wild-type rat intestinal fatty acid binding protein) AFDGTWKVDRNENYEKFMEKMGINVVKRKLGAHDNLKLTITQEGNKFTVKESSNFRNIDVVFELGVDFAYSWTGGTELTGTWTMEGNKLVGKFKRVDNGKELIAVREISGNELIQTYTYEGVEAKRIFKKE	1.040

Now consider a different molecule.
Write down DR/DR SA measured for item 18V 31A 55W 73W 72A (protein, listed as Rattus norvegicus, PEPTIDE (1)...(131) wild-type rat intestinal fatty acid binding protein) AFDGTWKVDRNENYEKFVEKMGINVVKRKLAAHDNLKLTITQEGNKFTVKESSNWRNIDVVFELGVDFAYSAWDGTELTGTWTMEGNKLVGKFKRVDNGKELIAVREISGNELIQTYTYEGVEAKRIFKKE 0.392
